system: A375 cells (malignant melanoma); experiment: Inhibition of cancer cell proliferation, A375 (CellTiterGlo, 72 hours); assay type: cell-based; conditions: Homo sapiens, A-375
recordedMetric: GI50

For the compound `C=CC(=O)Nc1cc(C)ccc1Nc1nc(Nc2cc(OC)nc(N3CCN(CC)CC3)c2)ncc1C(F)(F)F` , give its measured GI50 value. < 100 nM

For the compound `C=CC(=O)Nc1cc(C)ccc1Nc1nc(Nc2ccnc3ccccc23)ncc1C(F)(F)F` , give its measured GI50 value. 101 to 500 nM

For the compound `C=CC(=O)Nc1ccccc1Nc1nc(N[C@H]2CCC[C@@H](C(N)=O)C2)ncc1Cl` , give its measured GI50 value. 101 to 500 nM

For the compound `C=CC(=O)Nc1ccccc1Nc1nc(Nc2cc(OC)nc(N3CCN(C(C)=O)CC3)c2)ncc1C(F)(F)F` , give its measured GI50 value. < 100 nM

###

test system: HT-29 cells (colorectal adenocarcinoma); test: Inhibition of cancer cell proliferation, HT-29 (CellTiterGlo, 72 hours); format: cell-based; conditions: Homo sapiens
// reported GI50 per item

C=CC(=O)Nc1cc(OC)ccc1Nc1nc(Nc2ccc3c(c2)CC(=O)N3CC)ncc1Cl [Compound I-166] : 101 to 500 nM
C=CC(=O)Nc1cc(OC)ccc1Nc1nc(Nc2ccc(N3CCCN(C(=O)OC(C)(C)C)CC3)cc2C#N)ncc1Cl [Compound I-156] : > 1000 nM
C=CC(=O)Nc1ccccc1Nc1nc(N[C@H]2CCCN(C(=O)[C@@H](C)O)C2)ncc1Cl [Compound I-134] : < 100 nM

Continue with the compound presented below.
For the compound C=CC(=O)Nc1cc(C)ccc1Nc1nc(Nc2cc(C(=O)NCCO)c(F)cc2C)ncc1Cl [Compound I-234] , give its measured GI50 value. 101 to 500 nM

###

molecular target: MEK1 activated ERK1 (Homo sapiens, UniProt P27361); construct: purchased Millipore (Billerica, Mass.) 14-439-K; assay: Omnia continuous-read kinase assay for potency against MEK1 activated ERK1; type: biochemical; settings: MEK1 activated ERK1, ATP at KM; read-out: ERK1 Omnia WT ATP KM IC50
Sequence (P27361 whole entry): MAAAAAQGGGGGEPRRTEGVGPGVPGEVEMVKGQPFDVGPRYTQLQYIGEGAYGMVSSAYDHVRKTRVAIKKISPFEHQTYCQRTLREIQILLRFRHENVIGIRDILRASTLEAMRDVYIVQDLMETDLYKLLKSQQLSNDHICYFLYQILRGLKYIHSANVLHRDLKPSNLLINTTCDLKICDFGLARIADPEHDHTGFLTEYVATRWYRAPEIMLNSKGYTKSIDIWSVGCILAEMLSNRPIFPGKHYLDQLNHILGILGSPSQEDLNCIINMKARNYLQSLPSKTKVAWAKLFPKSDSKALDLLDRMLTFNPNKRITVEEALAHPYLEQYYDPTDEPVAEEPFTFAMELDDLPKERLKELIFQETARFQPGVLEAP
recordedMetric: IC50

C#CCOc1cc(C)c(Nc2ncc(Cl)c(Nc3ccccc3NC(=O)C=C)n2)cc1C(N)=O : 101 to 500 nM

Retrieve IC50 on MEK1 activated ERK1 (Homo sapiens, UniProt P27361); query `C=CC(=O)N[C@@H]1CCCC[C@H]1Nc1nc(N[C@H]2CCCN(C(=O)CO)C2)ncc1C(F)(F)F` 101 to 500 nM

Retrieve IC50 on MEK1 activated ERK1 (Homo sapiens, UniProt P27361); query `C=CC(=O)Nc1ccccc1Oc1nc(Nc2ccc(N3CCC[C@@H]3C(N)=O)cc2OC)ncc1C(N)=O` 101 to 500 nM

###

target: MEK1 activated ERK1 (Homo sapiens); construct: purchased Millipore (Billerica, Mass.) 14-439-K; assay: Omnia continuous-read kinase assay for potency against MEK1 activated ERK1; assay type: biochemical; settings: MEK1 activated ERK1, ATP at KM; read-out: ERK1 Omnia WT ATP KM IC50
pIC50: −log10 of the molar value.
// reported pIC50 per item

C=CC(=O)Nc1ccccc1Nc1nc(Nc2cc(NC(=O)CCCC(=O)NCCCOCCOCCOCCCNC(=O)CCCC[C@@H]3SC[C@@H]4NC(=O)N[C@@H]43)cc(C(N)=O)c2)ncc1Cl : 6.30 to 7.00
C=CC(=O)Nc1ccccc1Nc1nc(Nc2cc(C(N)=O)c(OCCCNC(=O)C#CC)cc2C)ncc1Cl : 6.30 to 7.00

For the compound `C=CC(=O)Nc1cc(C)ccc1Nc1nc(Nc2cc(OC)nc(N3CCOCC3)c2)ncc1C(F)(F)F` , give its measured pIC50 value. 6.30 to 7.00
